All figures here come from paper PMC2934701.

- assay-system: hTAS2R16 (ssr3-hTAS2R16) (Homo sapiens, UniProt Q9NYV7, F93Y)
- Sequence (Q9NYV7 whole entry F93Y): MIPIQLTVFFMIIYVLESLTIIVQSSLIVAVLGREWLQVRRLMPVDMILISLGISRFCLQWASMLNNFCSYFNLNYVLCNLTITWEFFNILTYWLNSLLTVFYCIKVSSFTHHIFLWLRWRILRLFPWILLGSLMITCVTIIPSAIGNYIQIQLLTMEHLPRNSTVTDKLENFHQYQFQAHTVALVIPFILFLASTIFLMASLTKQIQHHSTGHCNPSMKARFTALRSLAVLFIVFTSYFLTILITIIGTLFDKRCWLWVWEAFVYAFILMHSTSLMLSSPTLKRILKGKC
- test-protocol: Fluo-4 calcium assay, HEK293T + Galpha16gust44
readout-type: EC50 (mM)
Write it as a number; the unit mM goes unstated.

Short answer please: EC50, hTAS2R16 (ssr3-hTAS2R16) (Homo sapiens, UniProt Q9NYV7, F93Y), entry "OCc1ccccc1O[C@@H]1O[C@H](CO)[C@@H](O)[C@H](O)[C@H]1O"
10

====

- assay-system: hTAS2R16 (ssr3-hTAS2R16) (Homo sapiens, UniProt Q9NYV7, H181T)
- Sequence (Q9NYV7 whole entry H181T): as the sequence (Q9NYV7 whole entry F93Y) above, with Y93F, H181T counted along it
- test-protocol: Fluo-4 calcium assay, HEK293T + Galpha16gust44
readout-type: EC50 (µM)
Answer with a number only, understood to be in µM.

Name the reported EC50 value associated with the compound "OCc1ccccc1O[C@@H]1O[C@H](CO)[C@@H](O)[C@H](O)[C@H]1O"
1840
